The values you see were collected from patent US11639329B2.

# experiment: Determination of pKa of formulated lipids (TNS fluorescence assay in lipid nanoparticles)
# Format: physicochemical
# studyConditions: probe TNS (2-(p-toluidino)-6-napthalene sulfonic acid); lipid formulated in LNP (compound/DSPC/cholesterol/PEG-lipid); pH giving half-maximal TNS fluorescence
Listing of entries alongside the reported pKa.
Reply: number alone, nothing else.

[[record]]
compound = "CCCCCCC(CCCC)C(=O)OCCCCCCCCCN(CCCCCCCCCOC(=O)C(CCCC)CCCCCC)CCN(C)CCCCCCCCCO (stereo not shown)"
reportedvalue = 6.08


Reported pKa, compound CCCCCCCCC(CCCCCC)COC(=O)CCCCCCCN(CCCCCCCC(=O)OCC(CCCCCC)CCCCCCCC)CCN(CC)CCCO (stereo not shown) : ____
6.82

Reported pKa, compound CCCCCCCCC(CCCCCC)COC(=O)CCCCCN(CCCCCC(=O)OCC(CCCCCC)CCCCCCCC)CCN(C)CCO (stereo not shown) : ____
6.91

Reported pKa, compound CCCCCCCCC(CCCCCC)COC(=O)CCCCCN(CCCCCC(=O)OCC(CCCCCC)CCCCCCCC)CCN(C)CCCCCCCCCO (stereo not shown) : ____
6.17

====

Listing of entries alongside the reported pKa.
# experiment: Determination of pKa of formulated lipids (TNS fluorescence assay in lipid nanoparticles)
# Format: physicochemical
# studyConditions: probe TNS (2-(p-toluidino)-6-napthalene sulfonic acid); lipid formulated in LNP (compound/DSPC/cholesterol/PEG-lipid); pH giving half-maximal TNS fluorescence
Reply: number alone, nothing else.

Answered cases to consult:
[[record]]
compound = "CCCCCCCCC(CCCCCC)COC(=O)CCCCCN(CCCCCC(=O)OCC(CCCCCC)CCCCCCCC)CCN(C)CCCCCCO (stereo not shown)"
reportedvalue = 6.69

[[record]]
compound = "CCCCCCCCCN(CCCO)CCN(CCCCCC(=O)OCC(CCCCCC)CCCCCCCC)CCCCCC(=O)OCC(CCCCCC)CCCCCCCC (stereo not shown)"
reportedvalue = 5.76

[[record]]
compound = "CCCCCCCCC(CCCCCC)COC(=O)CCCCCCCN(CCCCCCCC(=O)OCC(CCCCCC)CCCCCCCC)CCN(CCO)CCCO (stereo not shown)"
reportedvalue = 7.18


Attention now turns to another entry.
Reported pKa, compound CCCCCCCCCN(CCO)CCN(CCCCCC(=O)OCC(CCCCCC)CCCCCCCC)CCCCCC(=O)OCC(CCCCCC)CCCCCCCC (stereo not shown) : ____
5.83
